Cited source: patent US20150259422A1

Item-by-item account of EC50
# target: T1, alphaVbeta3 integrin, native human, on rhabdomyosarcoma (RD) cells and on human umbilical vein endothelial … (human, UniProt P06756 31-1048; P05106 27-788)
# T1 construct: whole, on cells; also called αVβ3; native human β3
# T1 sequence (P06756 31-1048, chain 1 of 2): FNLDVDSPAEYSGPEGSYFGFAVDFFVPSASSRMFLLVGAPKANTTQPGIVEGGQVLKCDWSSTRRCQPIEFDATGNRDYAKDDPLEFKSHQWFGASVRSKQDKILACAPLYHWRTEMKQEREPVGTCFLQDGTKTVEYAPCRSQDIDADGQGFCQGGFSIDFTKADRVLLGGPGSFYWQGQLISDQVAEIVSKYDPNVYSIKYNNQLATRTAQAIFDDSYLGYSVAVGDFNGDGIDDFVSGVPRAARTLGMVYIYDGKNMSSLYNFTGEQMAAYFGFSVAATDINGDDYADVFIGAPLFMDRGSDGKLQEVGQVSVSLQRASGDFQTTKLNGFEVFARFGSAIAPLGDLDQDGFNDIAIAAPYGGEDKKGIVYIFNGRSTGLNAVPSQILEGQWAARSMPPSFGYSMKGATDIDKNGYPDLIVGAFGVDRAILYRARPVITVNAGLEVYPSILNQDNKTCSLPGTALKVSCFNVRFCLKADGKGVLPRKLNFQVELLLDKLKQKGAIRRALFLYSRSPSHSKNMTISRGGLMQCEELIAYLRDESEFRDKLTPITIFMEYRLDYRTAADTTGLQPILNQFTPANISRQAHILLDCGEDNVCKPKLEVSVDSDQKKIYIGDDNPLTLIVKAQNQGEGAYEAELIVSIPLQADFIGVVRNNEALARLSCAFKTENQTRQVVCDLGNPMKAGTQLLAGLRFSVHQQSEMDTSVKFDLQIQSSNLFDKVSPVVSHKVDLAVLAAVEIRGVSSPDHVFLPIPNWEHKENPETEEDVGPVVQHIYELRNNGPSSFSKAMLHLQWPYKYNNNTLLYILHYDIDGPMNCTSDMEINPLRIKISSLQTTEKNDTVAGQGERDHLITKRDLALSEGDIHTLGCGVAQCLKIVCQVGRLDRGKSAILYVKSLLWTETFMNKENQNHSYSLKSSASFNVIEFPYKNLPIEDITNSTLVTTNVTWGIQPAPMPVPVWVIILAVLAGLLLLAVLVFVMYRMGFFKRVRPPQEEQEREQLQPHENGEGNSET
# T1 sequence (P05106 27-788, chain 2 of 2): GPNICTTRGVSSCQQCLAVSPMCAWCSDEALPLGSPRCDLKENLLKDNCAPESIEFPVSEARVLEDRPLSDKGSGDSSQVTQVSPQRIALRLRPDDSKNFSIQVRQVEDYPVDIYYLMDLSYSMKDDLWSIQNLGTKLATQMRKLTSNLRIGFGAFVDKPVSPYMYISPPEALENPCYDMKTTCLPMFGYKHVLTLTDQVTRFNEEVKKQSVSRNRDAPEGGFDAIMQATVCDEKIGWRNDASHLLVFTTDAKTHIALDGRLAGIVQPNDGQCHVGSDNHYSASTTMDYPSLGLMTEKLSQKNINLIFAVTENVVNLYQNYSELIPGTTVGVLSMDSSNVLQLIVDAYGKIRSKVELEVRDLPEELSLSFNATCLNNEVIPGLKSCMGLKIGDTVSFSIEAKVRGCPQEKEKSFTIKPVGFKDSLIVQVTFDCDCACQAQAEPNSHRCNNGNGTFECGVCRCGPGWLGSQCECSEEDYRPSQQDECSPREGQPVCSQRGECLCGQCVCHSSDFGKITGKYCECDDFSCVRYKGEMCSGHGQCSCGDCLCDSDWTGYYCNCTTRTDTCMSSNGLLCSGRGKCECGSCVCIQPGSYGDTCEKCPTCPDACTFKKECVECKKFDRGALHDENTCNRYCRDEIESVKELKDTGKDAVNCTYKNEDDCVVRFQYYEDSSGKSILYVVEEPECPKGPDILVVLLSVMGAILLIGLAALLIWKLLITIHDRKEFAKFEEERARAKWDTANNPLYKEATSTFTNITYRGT
# procedure.summary: flow cytometry on RD cells expressing alphaVbeta3, PE anti-human IgG; EC50 = concentration where 50% of cells gated in R2
Form entry: value (nM) — number only.

Below: 2 binders and their reported EC50.
| binder | readout.unit | meas.value |
| --- | --- | --- |
| VH3/Vκ1 Composite Human Antibody variant of HLMC (antibody, human IgG1, kappa, V domains shown, also called VH3/Vk1) VH: QAQLVQSGAEVKKPGASVKVSCKASGYLFSNSWMNWVKQRRGAGLEWIGRIFPGDGDTNYNGKFKGRATITADKSTSTAYMELSSLRSEDTAVYFCARWGLTRDRRLYLDYWGQGTTVTVSS VL: DIVMTQSPDSLVVSLGERATINCKSSQSLLYSSNQKNYLAWYQQKSGQAPRLLIYWASTRESGVPDRFTGSGSGTDFTLTISSLQAEDVAVYYCKQYYTYPLTFGQGTKLEIKR | nM | 4.85 |
| VH2/Vκ1 Composite Human Antibody variant of HLMC (antibody, human IgG1, kappa, V domains shown, also called VH2/Vk1) VH: QAQLVQSGPEVKKPGASVKVSCKASGYLFSNSWMNWVKQRPGAGLEWIGRIFPGDGDTNYNGKFKGRATITADKSTSTAYMELSSLRSEDTAVYFCARWGLTRDRRLYLDYWGQGTTVTVSS VL: DIVMTQSPDSLVVSLGERATINCKSSQSLLYSSNQKNYLAWYQQKSGQAPRLLIYWASTRESGVPDRFTGSGSGTDFTLTISSLQAEDVAVYYCKQYYTYPLTFGQGTKLEIKR | nM | 4.55 |

EC50 recorded for this binder, VH4/Vκ1 Composite Human Antibody variant of HLMC (antibody, human IgG1, kappa, V domains shown, also called Vh4/Vk1; VH4/Vk1) VH: QAQLVQSGAEVKKPGASVKVSCKASGYLFSNSWMNWVKQRRGAGLEWIGRIFPGDGDTNYNGKFKGRVTITADKSTSTAYMELSSLRSEDTAVYFCARWGLTRDRRLYLDYWGQGTTVTVSS VL: DIVMTQSPDSLVVSLGERATINCKSSQSLLYSSNQKNYLAWYQQKSGQAPRLLIYWASTRESGVPDRFTGSGSGTDFTLTISSLQAEDVAVYYCKQYYTYPLTFGQGTKLEIKR , is 3.12
